Where these numbers come from: patent US8178506B2

system: preadipocytes; assay: Caspase assay in preadipocytes; format: cell-based, human; details: untreated control set equal to 1.0
In the oligonucleotide strings, read from the 5' end, every base follows the letter of its sugar. An asterisk marks phosphorothioate; unmarked linkages are phosphodiester. Other units and linkages are bracketed, terminal groups are in braces. A string of capitals states the bases alone. e = 2'-O-(2-methoxyethyl) (MOE); [5mC] = 5-methylcytosine
Listed here: items and their measured Fold Increase over UTC (caspase activity).
Express the result in fold over UTC but write the number alone.

The following substances have reported results that may help.
327934 (antisense eG*eG*eT*eA*e[5mC]*eA*eA*eT*e[5mC]*eA*eA*e[5mC]*eG*eG*eT*e[5mC]*eG*eA*eT*eG*eG*eT) [compound 327934]    2.0
327901 (antisense eT*eG*eA*eG*e[5mC]*eT*eA*e[5mC]*eA*eG*eT*eG*e[5mC]*eT*eT*e[5mC]*eA*eT*e[5mC]*eT*e[5mC]*eA) [compound 327901]    2.0
327919 (antisense eG*eA*eA*eA*e[5mC]*e[5mC]*e[5mC]*eA*eG*e[5mC]*eA*eG*eA*e[5mC]*eA*eA*eT*eG*eT*eA*eG*e[5mC]*eT) [compound 327919]    1.3

Turning to the following substance.
Request: Look up Fold Increase over UTC (caspase activity) for this substance: 327888 (antisense eA*eA*eT*eG*e[5mC]*e[5mC]*e[5mC]*e[5mC]*eT*eA*eA*eA*eA*eA*eT*e[5mC]*e[5mC]*eT*eT*eA*eT) [compound 327888]
Result: 1.1
